Assay: inhibitors of E-selectin induction by TNFa, primary screen, imaging, HUVEC, immunofluorescence, MLSMR starter and 10KST1 sets (AID 487);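 further: signal is fraction of cell area covered by stained E-selectin grains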
Details: HUVEC TNFalpha-induced E-selectin immunofluorescence imaging, at 2 µM; active compounds read high
For each entry below, report its inhibition value.
Give just the numeric value; % need not be written.

// inhibition lookup, key: `Cc1nc(NCc2ccccc2)c(C(N)=O)c2c1COC(C)(C)C2`
-17.6

// inhibition lookup, key: CC1(C)Cc2c(C#N)c(NCC3CCCO3)nc(-c3ccco3)c2CO1 (stereo unspecified)
-83

// inhibition lookup, key: `COC(=O)c1[nH]c2cc(OC)ccc2c1NC(=O)CN1CCC(C(N)=O)CC1`
14.4

// inhibition lookup, key: `COc1cccc(-c2nc(NC(C)C)c3ccccc3n2)c1O`
-37.3

// inhibition lookup, key: `CCOC(=O)c1cc2c(=O)n3cccc(C)c3nc2n(Cc2cccnc2)c1=N`
-66.9

// inhibition lookup, key: `COc1cccc(COc2nc3c(c(=O)n(C)c(=O)n3C)n2C)c1`
-99.3

// inhibition lookup, key: CC12CCC(C(=O)N(CCC#N)CCC#N)(CC1=O)C2(C)C (stereo unspecified)
-9

// inhibition lookup, key: `CN(C)S(=O)(=O)Nc1ccc(NS(=O)(=O)N(C)C)c(S(=O)(=O)c2ccccc2)c1`
-131

// inhibition lookup, key: `CCCCn1cnc2c(c1=O)c1nc3ccccc3nc1n2Cc1ccc2c(c1)OCO2`
-78

// inhibition lookup, key: `Cc1oncc1C(=O)Nc1ccc(C(F)(F)F)cc1`
-80

// inhibition lookup, key: `CCCCn1c(O)c(C=NCCCN(C)C)c(=O)[nH]c1=O`
-38.4

###

Assay: inhibitors of E-selectin induction by TNFa, primary screen, imaging, HUVEC, immunofluorescence, MLSMR starter and 10KST1 sets (AID 487);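 further: signal is fraction of cell area covered by stained E-selectin grains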
Settings: HUVEC TNFalpha-induced E-selectin immunofluorescence imaging, at 2 µM; active compounds read high
Cut-off -70% on inhibition, inclusive. At or above means true (1); below means false (0).

Say whether O=C(NC1(C(F)(F)F)C(=O)Nc2c1c(=O)[nH]c(=O)n2Cc1ccco1)C1CCCCC1 (stereo not given) shows inhibition of -70% or more.
true (1)

Say whether `CN(C=C1C(=O)CC(C)(C)CC1=O)CCN1CCNCC1` shows inhibition of -70% or more.
true (1)

Say whether `CC(C)(C)c1cccc(/C=N/O)c1O` shows inhibition of -70% or more.
false (0)

Say whether CN1CCCN=C1COC(=O)C(O)(c1ccccc1)C1CCCCC1 (stereo not given) shows inhibition of -70% or more.
false (0)

Say whether O=S1CCCSC1c1cccnc1 (stereo not given) shows inhibition of -70% or more.
false (0)

Say whether `O=c1/c(=C\c2cccn2-c2ccccc2)sc2nc3ccccc3n12` shows inhibition of -70% or more.
true (1)

Say whether `Clc1ccc(Cl)c(-c2ccc(/C=N/c3ncn[nH]3)o2)c1` shows inhibition of -70% or more.
false (0)

Say whether CC(C)(C)NCC(O)COc1cccc2c1C[C@H](O)[C@H](O)C2 (stereo not given in full) shows inhibition of -70% or more.
false (0)

Say whether `NS(=O)(=O)c1cc2c(cc1Cl)NC=NS2(=O)=O` shows inhibition of -70% or more.
true (1)

Say whether Cc1ccc(C(=O)C2=C(O)C(=O)N(c3ncccn3)C2c2ccc(Cl)cc2)o1 (stereo not given) shows inhibition of -70% or more.
true (1)

Say whether `CCCOc1ccc(Cc2nn[nH]n2)cc1` shows inhibition of -70% or more.
true (1)

Say whether CC(=O)C1=C(O)C(=O)N(c2cccc(C(=O)O)c2)C1c1ccc(F)cc1 (stereo not given) shows inhibition of -70% or more.
true (1)

Say whether `COc1ccc(OC)c(C2=Nn3c(nnc3C3CCCCC3)SC2)c1` shows inhibition of -70% or more.
true (1)

Say whether `O=C(c1ccc2c(c1)OCCO2)N1CCCCC1` shows inhibition of -70% or more.
true (1)

Say whether `O=C(CN1C(=O)c2ccccc2S1(=O)=O)c1ccccc1` shows inhibition of -70% or more.
true (1)

Say whether `O=C(NCc1ccco1)c1cnn2c(C(F)(F)F)cc(-c3ccco3)nc12` shows inhibition of -70% or more.
true (1)

Say whether `COc1ccc(-c2nn3c(COc4ccccc4)nnc3s2)cc1OC` shows inhibition of -70% or more.
true (1)

Say whether `CO[C@H]1C[C@@H]2CC[C@@H](C)[C@@](O)(O2)C(=O)C(=O)N2CCCC[C@H]2C(=O)O[C@H]([C@H](C)C[C@@H]2CC[C@@H](O)[C@H](OC)C2)CC(=O)[C@H](C)C=C(C)[C@@H](O)[C@@H](OC)C(=O)[C@H](C)C[C@H](C)C=CC=CC=C1C` shows inhibition of -70% or more.
true (1)

Say whether `CC(=O)Nc1ccc(-c2cc3ccccc3o2)cc1` shows inhibition of -70% or more.
true (1)

Say whether `CCOc1cc2nc(-c3ccc(OC)c(OC)c3)nc(N3CCOCC3)c2cc1OC` shows inhibition of -70% or more.
false (0)

Say whether `CC(=O)Nc1nnc(S(N)(=O)=O)s1` shows inhibition of -70% or more.
true (1)

Say whether CC(C)NCC(O)COc1cccc2[nH]ccc12 (stereo not given) shows inhibition of -70% or more.
true (1)

Say whether C=CCNC(=O)C(C#N)c1nc2ccccc2nc1N1CCCCCC1 (stereo not given) shows inhibition of -70% or more.
false (0)

Say whether `C[C@@H]1C[C@H](Nc2ccccc2)c2ccccc2N1C(=O)c1cccnc1` shows inhibition of -70% or more.
true (1)

Say whether `Cc1ccc(C(=O)/C=C/Nc2cccc(O)c2)cc1` shows inhibition of -70% or more.
true (1)

Say whether Cc1c(C(Nc2ccccn2)c2ccccc2)c(=O)n(-c2ccccc2)n1C (stereo not given) shows inhibition of -70% or more.
false (0)

Say whether `Nc1nnnn1/N=C/c1ccccn1` shows inhibition of -70% or more.
false (0)

Say whether `COc1ccc(C2=Nn3c(nnc3-c3cccnc3)SC2)cc1OC` shows inhibition of -70% or more.
false (0)

Say whether Cc1ccc(C2/C(=C(/O)c3cnn(-c4ccccc4)c3C)C(=O)C(=O)N2CCN2CCOCC2)o1 (stereo not given) shows inhibition of -70% or more.
true (1)

Say whether COc1cccc(/C(O)=C2\C(=O)C(=O)N(c3ccccn3)C2c2ccccc2OC)c1 (stereo not given) shows inhibition of -70% or more.
false (0)

Say whether `Cc1nc(/N=C(\N)Nc2ccccc2)nc2ccccc12` shows inhibition of -70% or more.
false (0)

Say whether `COc1ccc2[nH]c3c(N4CCN(Cc5ccc6c(c5)OCO6)CC4)ncnc3c2c1` shows inhibition of -70% or more.
true (1)

Say whether C=CC(O)Cc1c(C)n[nH]c1C (stereo not given) shows inhibition of -70% or more.
true (1)

Say whether `Cn1c(=O)c2c(nc(OCc3cccnc3)n2Cc2ccccc2)n(C)c1=O` shows inhibition of -70% or more.
true (1)

Say whether CN1C(=O)N(c2ccccc2)C(Nc2nncs2)C1(C)C (stereo not given) shows inhibition of -70% or more.
true (1)

Say whether `CCOC(=O)c1c(CN2CCN(C)CC2)n(C)c2cc(Br)c(OC)cc12` shows inhibition of -70% or more.
true (1)

Say whether `CCCCCCn1c(SCCN2CCOCC2)nc2c1c(=O)[nH]c(=O)n2C` shows inhibition of -70% or more.
true (1)

Say whether CCCCCCn1c(C(C)O)nc2ccccc21 (stereo not given) shows inhibition of -70% or more.
false (0)

Say whether CCOC(=O)C1=C(c2ccccc2)NC(SCC(=O)Nc2ccccc2C)=C(C#N)C1c1ccco1 (stereo not given) shows inhibition of -70% or more.
false (0)

Say whether Cc1cccc(N)c1SC1CCCCC1O (stereo not given) shows inhibition of -70% or more.
false (0)

Say whether `Cn1c(=O)c2[nH]cnc2n(C)c1=O` shows inhibition of -70% or more.
false (0)

Say whether CCc1cccc(C)c1N(C(=O)Cn1c(=O)[nH]c2ccccc21)C(C)COC (stereo not given) shows inhibition of -70% or more.
true (1)
